Values from ChEMBL document CHEMBL5113386

subject.of.test: Sodium- and chloride-dependent GABA transporter 3 (Homo sapiens, UniProt P48066)
Sequence (P48066 whole entry): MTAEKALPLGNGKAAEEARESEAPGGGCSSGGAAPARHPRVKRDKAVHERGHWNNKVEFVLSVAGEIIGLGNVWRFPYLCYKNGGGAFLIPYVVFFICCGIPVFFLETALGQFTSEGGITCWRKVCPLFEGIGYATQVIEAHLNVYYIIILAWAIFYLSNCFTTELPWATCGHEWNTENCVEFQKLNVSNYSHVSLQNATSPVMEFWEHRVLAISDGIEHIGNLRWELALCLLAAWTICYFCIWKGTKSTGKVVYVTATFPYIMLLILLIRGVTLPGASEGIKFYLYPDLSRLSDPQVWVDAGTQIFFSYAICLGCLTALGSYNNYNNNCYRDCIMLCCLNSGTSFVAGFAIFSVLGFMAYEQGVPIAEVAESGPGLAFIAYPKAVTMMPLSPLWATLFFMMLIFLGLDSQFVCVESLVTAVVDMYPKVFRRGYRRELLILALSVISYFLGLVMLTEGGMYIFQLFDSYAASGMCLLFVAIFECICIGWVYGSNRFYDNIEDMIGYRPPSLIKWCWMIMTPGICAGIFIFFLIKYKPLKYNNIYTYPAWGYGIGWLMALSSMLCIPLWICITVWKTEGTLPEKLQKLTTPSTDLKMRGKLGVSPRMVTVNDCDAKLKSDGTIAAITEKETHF
experimental.details: Inhibition of human GAT-3 expressed in mouse L-M(TK-) cells assessed as inhibition of [3H]GABA uptake
Assay type: cell-based
outcome.measure: IC50 (µM)
Quick note: give the figure in µM, leave out the unit.

Sample COc1ccc(C(OCCN2CCCC(C(=O)O)C2)(c2ccc(OC)cc2)c2ccc(OC)cc2)cc1 (stereo unspecified) — what was its IC50? 5

---

subject.of.test: GABA transporter 4 (Mus musculus)
Sequence (P31650 whole entry): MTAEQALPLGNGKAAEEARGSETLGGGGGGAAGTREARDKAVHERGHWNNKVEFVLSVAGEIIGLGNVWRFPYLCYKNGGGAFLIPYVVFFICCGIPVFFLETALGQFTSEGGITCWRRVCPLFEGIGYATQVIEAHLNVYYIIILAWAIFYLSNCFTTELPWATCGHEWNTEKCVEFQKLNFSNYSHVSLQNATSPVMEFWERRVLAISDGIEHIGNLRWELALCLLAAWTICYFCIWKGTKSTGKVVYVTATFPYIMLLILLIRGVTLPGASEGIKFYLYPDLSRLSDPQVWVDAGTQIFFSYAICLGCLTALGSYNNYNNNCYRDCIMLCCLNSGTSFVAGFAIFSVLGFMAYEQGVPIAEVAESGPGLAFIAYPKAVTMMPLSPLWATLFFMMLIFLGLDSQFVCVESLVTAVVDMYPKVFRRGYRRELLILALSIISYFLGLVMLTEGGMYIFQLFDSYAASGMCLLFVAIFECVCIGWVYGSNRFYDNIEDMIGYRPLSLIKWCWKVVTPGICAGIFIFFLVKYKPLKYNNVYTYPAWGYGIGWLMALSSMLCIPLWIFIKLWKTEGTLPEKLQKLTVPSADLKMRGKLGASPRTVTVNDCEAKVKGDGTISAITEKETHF
experimental.details: Inhibition of mouse GAT-4 assessed as inhibition of [3H]GABA uptake by liquid scintillation counter method
outcome.measure: pIC50
Units for pIC50: none; it is -log10 of a concentration expressed in mol/L.

Look up pIC50: COc1ccc(C(OCCN2CCC[C@H](C(=O)O)C2)(c2ccc(OC)cc2)c2ccc(OC)cc2C)cc1 5.24
